Read-out: Monocyte Chemoattractant Protein-1 (MCP1), CCL2 (gene 6347)
Assay: BSK_LPS_MCP1: BioMAP Diversity Plus: LPS Assay for Monocyte Chemoattractant Protein-1 (MCP1) Biomarker Activity (AID 2283081)
Settings: primary human HUVEC with PBMC; actives raise or lower the signal
Calls of active or inactive are those of the source. Rule for the calls: active = hit-call score of the fitted dose curve at least 0.9, where 1 is the maximum; inactive = score below 0.9.
Outcome codes: 1.0 (active), 0.0 (inactive)

[
  {
    "Compound": "CCCCC(CC)C(=O)OCCOCCOCCOCCOC(=O)C(CC)CCCC (stereo unspecified)",
    "Group": 0.0
  },
  {
    "Compound": "O=C1OC2(c3ccccc31)c1cc(I)c(O)c(I)c1Oc1c2cc(I)c(O)c1I",
    "Group": 1.0
  },
  {
    "Compound": "CC(=O)Nc1ccc(O)cc1",
    "Group": 0.0
  },
  {
    "Compound": "Oc1cc2ccccc2cc1O",
    "Group": 0.0
  },
  {
    "Compound": "OCC(F)(F)C(F)(F)C(F)(F)C(F)(F)C(F)(F)C(F)(F)C(F)(F)C(F)(F)C(F)(F)C(F)(F)C(F)(F)F",
    "Group": 0.0
  },
  {
    "Compound": "CCCCC=O",
    "Group": 0.0
  },
  {
    "Compound": "CS(=O)(=O)c1ccc([C@@H](CC2CCCC2)C(=O)Nc2cnccn2)cc1Cl",
    "Group": 0.0
  },
  {
    "Compound": "CN(C)c1ccc(C(=C2C=CC(=[N+](C)C)C=C2)c2ccccc2)cc1",
    "Group": 1.0
  },
  {
    "Compound": "C=CC(=O)OCCC(F)(F)C(F)(F)C(F)(F)C(F)(F)C(F)(F)C(F)(F)C(F)(F)C(F)(F)F",
    "Group": 0.0
  },
  {
    "Compound": "C[C@]12CC[C@@H]3c4ccc(O)cc4CC[C@H]3[C@@H]1C[C@@H](O)[C@@H]2O",
    "Group": 0.0
  },
  {
    "Compound": "CN(C)CCOC(c1ccccc1)c1ccccc1",
    "Group": 0.0
  },
  {
    "Compound": "Cc1ccc(N=Nc2c(O)ccc3ccccc23)c(C)c1",
    "Group": 0.0
  },
  {
    "Compound": "Cc1ccc(C(=O)c2ccccc2)cc1",
    "Group": 0.0
  },
  {
    "Compound": "O=P(O)(O)CCC(F)(F)C(F)(F)C(F)(F)C(F)(F)C(F)(F)C(F)(F)F",
    "Group": 0.0
  },
  {
    "Compound": "CC1=NN(c2ccccc2)C(=O)C1",
    "Group": 0.0
  },
  {
    "Compound": "CCCCCCCCCCCCCCCCCC[N+](C)(C)Cc1ccccc1",
    "Group": 1.0
  },
  {
    "Compound": "CCCCCCCCCCCCCCC",
    "Group": 0.0
  },
  {
    "Compound": "COCN(COC)c1nc(N(COC)COC)nc(N(COC)COC)n1",
    "Group": 0.0
  },
  {
    "Compound": "OCC(CO)(CBr)CBr",
    "Group": 0.0
  },
  {
    "Compound": "N=C(N)c1ccc(OCCCCCOc2ccc(C(=N)N)cc2)cc1",
    "Group": 0.0
  },
  {
    "Compound": "Cc1cccc2c1ccc1ccccc12",
    "Group": 0.0
  },
  {
    "Compound": "O=C(CCCN1CCC(O)(c2ccc(Cl)cc2)CC1)c1ccc(F)cc1",
    "Group": 1.0
  },
  {
    "Compound": "COc1cccc(O)c1",
    "Group": 0.0
  },
  {
    "Compound": "CC(C)(C)c1ccc(O)c(O)c1",
    "Group": 1.0
  },
  {
    "Compound": "CCC(C)c1ccccc1O (stereo unspecified)",
    "Group": 0.0
  },
  {
    "Compound": "O=C(NCc1ncc(C(F)(F)F)cc1Cl)c1c(Cl)cccc1Cl",
    "Group": 0.0
  }
]
